Could you please report measured growth for the items listed next?
test system: SNB-19 CNS; assay: NCI-60 one-dose screen, 48 h (100 = growth as untreated, 0 = no growth, -100 = all killed); details: 10 µM unless noted
Compounds without any hit were thinned out: in the full panel of roughly 83,000, 20% have a hit.
Give bare numbers, in %.

Check out these entries, answers already filled in.
[[record]]
compound = "Nc1ccc2c(c1)Cc1cc(NC(=O)C(F)(F)F)ccc1-2"
study_system = "SNB-19 CNS"
value = 101

[[record]]
compound = "COc1ccc(OC)c(NC=O)c1"
study_system = "SNB-19 CNS"
value = 106

[[record]]
compound = "O=[N+]([O-])c1cc(CCl)ccc1OCCBr"
study_system = "SNB-19 CNS"
value = 107


List growth for every entry below, keeping the order given.
1. Clc1ccc(N2CCN(CCCN3CCN(c4cccc(Cl)c4)CC3)CC2)cc1
2. C/C=C/C1OC23CCCCC2C(C#N)(C(=N)O3)C1(C#N)C#N (stereo not given)
3. CCOC(=O)C(C(C)=O)c1nc2sc3cc(Cl)c(Cl)cc3n2c(=O)c1C#N (stereo not given)
4. O=C(COc1cccc(/C=C2\Oc3ccccc3C2=O)c1)c1ccc([N+](=O)[O-])cc1
5. COc1ncc(-c2ccc3nc(N)n(-c4ccccc4C(F)(F)F)c(=O)c3c2)cc1S(=O)(=O)Nc1ccc(F)cc1F

1: 63.3; 2: 101; 3: 93; 4: 91.3; 5: 76.1

List reported growth for each of these compounds:
1. O=C1Nc2ccccc2/C1=C/C(=O)c1ccc(N2CCCC2)cc1
2. Cc1ccc(S(=O)(=O)Oc2ccc([N+](=O)[O-])cc2[N+](=O)[O-])cc1

1. 57.2
2. 110
